TARGET UNDER TEST: human ether-à-go-go-related gene (hERG) potassium channel (human)
PROTOCOL TEXT: primary screen, population patch clamp on CHO cells stably expressing hERG; higher = less effect of the substance
The campaign covered roughly 310,000 compounds. About 14,000 (4.5%) showed an effect of 50% or more. Effects have a minus sign here. Many of the other results were omitted from the sample, so strong results are more common in it than they were.
Assign hERG current change (%, negative = inhibition) at 10uM to each entry below.
Answer in %, number only, no unit symbol.

q: Given the compound `Cc1ccc(CSCC(=O)N2CCN(c3ccccc3)CC2)cc1` , what is its reported hERG current change (%, negative = inhibition) at 10uM?
a: -9.06

q: Now the compound `O=C(CSc1nncn1-c1ccccc1)N1CCCC1`
a: 2.66

q: Now the compound `O=C(NCc1ccccc1CN1CCCC1)c1cc2cc(Cl)ccc2o1`
a: -74.6

q: Now the compound `CSc1nc2sc3c(c2c(=O)n1C)CCCC3`
a: -13.5

* * *

TARGET UNDER TEST: human ether-à-go-go-related gene (hERG) potassium channel (human)
PROTOCOL TEXT: primary screen, population patch clamp on CHO cells stably expressing hERG; higher = less effect of the substance
Among all 310,000 compounds or so, about 14,000 (4.5%) showed an effect of 50% or more. The effect is printed as a negative number. The sample as a whole holds a higher share of strong results than the screen did.
Assign hERG current change (%, negative = inhibition) at 10uM to each entry below.
Answer in %, number only, no unit symbol.

q: Given the molecule `CC(C)C[C@H](NC(=O)c1[nH]cnc1C(=O)N[C@@H](C)c1ccccc1)C(=O)OC(C)(C)C` , what is its reported hERG current change (%, negative = inhibition) at 10uM?
a: 12.5

q: Now the molecule `O=C(O)COCC(=O)Nc1ccc(OCCc2ccccc2)cc1`
a: 11.8

q: Now the molecule Br.Cc1ccc(C(=O)C(c2ccccc2)N2Cc3ccccc3C2=N)cc1 (stereo not shown)
a: -60.3

q: Now the molecule `O=C(Nc1cccc(S(=O)(=O)N2CCCC2)c1)c1ccc2ccccc2n1`
a: 20.9

q: Now the molecule O=C(NC(=O)c1cccc(Cl)c1)OC[C@@H]1CCCN2CCCCC12 (stereo partly shown)
a: -60.9

q: Now the molecule `S=c1[nH]nc(-c2ccco2)n1/N=C/C=C/c1ccco1`
a: 13.7

q: Now the molecule O=C(NCC1CCCO1)c1ccc(NC(=O)c2cccc(Br)c2)cc1 (stereo not shown)
a: 16.4

q: Now the molecule `Cc1nc2c(c(C)nn2-c2ccccc2)c(C)c1CCC(=O)Nc1ccc(CN2CCCC2)cc1`
a: -61

q: Now the molecule `COc1cc(S(=O)(=O)NCc2ccc3c(c2)OCO3)ccc1Cl`
a: -26.1

q: Now the molecule `O=S(=O)(c1cccc(C(F)(F)F)c1)N(CCCN1CCOCC1)Cc1cccs1`
a: -74.9

q: Now the molecule CC(O)c1nc2ccccc2n1CCCOc1ccccc1 (stereo not shown)
a: -7.48

q: Now the molecule `Brc1ccccc1C1=Nn2c(nnc2-c2ccccc2)SC1`
a: 14.5

q: Now the molecule `N#Cc1cncc(-c2ccc3c(c2)OCCOCCOCCOCCOCCO3)n1`
a: -86.9

q: Now the molecule O=C(Nc1ccccc1)OCC1CCCN2CCCCC12 (stereo not shown)
a: -39.4

q: Now the molecule `CCc1nnc(NC(=O)C2CCN(c3cnccn3)CC2)s1`
a: 4.24

q: Now the molecule `Cl.Nc1nc(-c2ccc3c(c2)OCCO3)cs1`
a: 19.4

q: Now the molecule `CC(C)n1nnc2ccccc2c1=O`
a: 10

q: Now the molecule `O=C(NS(=O)(=O)Oc1ccc(Cl)cc1)OC[C@@H]1CCCN2CCCC[C@H]12`
a: 28.2

q: Now the molecule `O=C(NCCCN1CCOCC1)C1CCN(S(=O)(=O)c2cccc(C(F)(F)F)c2)CC1`
a: -9.45

q: Now the molecule COc1cc(C(C(=O)NC(C)(C)C)N(Cc2ccccc2)C(=O)c2cnccn2)cc(OC)c1OC (stereo not shown)
a: 5.8

q: Now the molecule `COc1ccc(C(=O)NCc2nnc(SCCOc3ccccc3)n2C)cc1`
a: -15.5

q: Now the molecule `c1ccn2cc(-c3ccc4c(c3)OCCO4)nc2c1`
a: 1.08

* * *

Assign hERG current change (%, negative = inhibition) at 10uM to each entry below.
TARGET UNDER TEST: human ether-à-go-go-related gene (hERG) potassium channel (human);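 note: peak tail current of the secondary pulse compared with the same well before compound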
PROTOCOL TEXT: primary screen, population patch clamp on CHO cells stably expressing hERG; higher = less effect of the substance
The campaign covered roughly 310,000 compounds. About 14,000 (4.5%) showed an effect of 50% or more. Effects have a minus sign here. What follows is part of a selection rich in strong results, with near analogues and random picks from the rest.
Answer in %, number only, no unit symbol.

q: Given the compound `O=C(COC(=O)C1(c2ccc(F)cc2)CCCC1)NC1CC1` , what is its reported hERG current change (%, negative = inhibition) at 10uM?
a: 0.676

q: Now the compound `O=C(Cn1cnc([N+](=O)[O-])n1)N/N=C/c1ccccc1O`
a: 14.4

q: Now the compound Cc1csc(CN(C)C(=O)CC2C(=O)NCCN2Cc2ccc(F)c(F)c2)n1 (stereo not drawn)
a: 6.02

q: Now the compound `Cl.O=C(O)C1=CCNCC1`
a: 17.6

q: Now the compound `CCOCC(=O)Nc1cc(-c2cn3cccnc3n2)ccc1C`
a: 6.69

q: Now the compound COc1ccc(CCNC(=O)c2ccc3c(c2)NC(=O)C(CSCc2cc(C)ccc2C)N3)cc1OC (stereo not drawn)
a: 12.2

q: Now the compound CC[C@@H](C)C(NC(=O)OC(C)(C)C)c1cn([C@@H](CCC(=O)OC(C)(C)C)C(=O)N2CCN(C(=O)OC(C)(C)C)CC2)nn1 (stereo partly drawn)
a: -17.6

q: Now the compound COc1ccc(CCN(C)C2CCCN(C(=O)c3sccc3C)C2)cc1OC (stereo not drawn)
a: -55

q: Now the compound CCn1nc(C)cc1C(=O)N1CCCC(N(C)CCc2ccc(OC)c(OC)c2)C1 (stereo not drawn)
a: -16.2

q: Now the compound `CCc1ccc(NC(=O)CSc2nc(=O)n(CCCN3CCOCC3)c3c2CCCC3)cc1`
a: -54.7

q: Now the compound `CN(c1ccccc1)S(=O)(=O)c1ccc(Cl)c(C(=O)OCC(=O)NCc2ccco2)c1`
a: -25

q: Now the compound `O=c1c2[nH]c3ccccc3c2ncn1Cc1ccccn1`
a: -0.569

* * *

TARGET UNDER TEST: human ether-à-go-go-related gene (hERG) potassium channel (human);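 note: peak tail current of the secondary pulse compared with the same well before compound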
PROTOCOL TEXT: primary screen, population patch clamp on CHO cells stably expressing hERG; higher = less effect of the substance
In all, about 310,000 compounds went through this assay and about 14,000 (4.5%) showed an effect of 50% or more. Effects have a minus sign here. The sample as a whole holds a higher share of strong results than the screen did.
OUTCOME MEASURE: hERG current change (%, negative = inhibition) at 10uM (%)
Answer in %, number only, no unit symbol.

q: Given the molecule `O=C(CCN1CCN(C/C=C/c2ccccc2)CC1)Nc1cccc(F)c1` , what is its reported hERG current change (%, negative = inhibition) at 10uM?
a: -77.9

q: Now the molecule CC1CCC(C(C)C)C(OC(=O)C[n+]2cccc(C(N)=O)c2)C1.[Cl-] (centres unmarked)
a: 7.66

q: Now the molecule CCC(C(=O)NC(C)(C)C)N(C(=O)Cn1nnc(-c2cccs2)n1)c1cnc2ccccc2c1 (centres unmarked)
a: -13.3

q: Now the molecule `CCN1CCN(C(=O)/C(=C/c2cccs2)NC(=O)c2ccc(C)c(C)c2)CC1`
a: -75.6

q: Now the molecule `Cc1nc(SCCc2ccccc2)[nH]c(=O)c1C`
a: 19.6

* * *

Assign hERG current change (%, negative = inhibition) at 10uM to each entry below.
TARGET UNDER TEST: human ether-à-go-go-related gene (hERG) potassium channel (human);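 note: peak tail current of the secondary pulse compared with the same well before compound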
PROTOCOL TEXT: primary screen, population patch clamp on CHO cells stably expressing hERG; higher = less effect of the substance
Among all 310,000 compounds or so, about 14,000 (4.5%) showed an effect of 50% or more. Effects have a minus sign here. This excerpt belongs to a sample that is enriched for strong results.

q: Given the molecule `COc1ccc(C)cc1NC(=O)CSc1nnc(COc2ccccc2)n1Cc1ccco1` , what is its reported hERG current change (%, negative = inhibition) at 10uM?
a: -9.46%

q: Now the molecule `O=C(COc1ccc(Br)cc1)N1CCN(Cc2ccc3c(c2)OCO3)CC1`
a: -53.9%

q: Now the molecule `Oc1cccc2ccc(Nc3ccccn3)nc12`
a: -53.6%

* * *

TARGET UNDER TEST: human ether-à-go-go-related gene (hERG) potassium channel (human, UniProt Q12809);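 note: peak tail current of the secondary pulse compared with the same well before compound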
Sequence (Q12809 whole entry, looked up): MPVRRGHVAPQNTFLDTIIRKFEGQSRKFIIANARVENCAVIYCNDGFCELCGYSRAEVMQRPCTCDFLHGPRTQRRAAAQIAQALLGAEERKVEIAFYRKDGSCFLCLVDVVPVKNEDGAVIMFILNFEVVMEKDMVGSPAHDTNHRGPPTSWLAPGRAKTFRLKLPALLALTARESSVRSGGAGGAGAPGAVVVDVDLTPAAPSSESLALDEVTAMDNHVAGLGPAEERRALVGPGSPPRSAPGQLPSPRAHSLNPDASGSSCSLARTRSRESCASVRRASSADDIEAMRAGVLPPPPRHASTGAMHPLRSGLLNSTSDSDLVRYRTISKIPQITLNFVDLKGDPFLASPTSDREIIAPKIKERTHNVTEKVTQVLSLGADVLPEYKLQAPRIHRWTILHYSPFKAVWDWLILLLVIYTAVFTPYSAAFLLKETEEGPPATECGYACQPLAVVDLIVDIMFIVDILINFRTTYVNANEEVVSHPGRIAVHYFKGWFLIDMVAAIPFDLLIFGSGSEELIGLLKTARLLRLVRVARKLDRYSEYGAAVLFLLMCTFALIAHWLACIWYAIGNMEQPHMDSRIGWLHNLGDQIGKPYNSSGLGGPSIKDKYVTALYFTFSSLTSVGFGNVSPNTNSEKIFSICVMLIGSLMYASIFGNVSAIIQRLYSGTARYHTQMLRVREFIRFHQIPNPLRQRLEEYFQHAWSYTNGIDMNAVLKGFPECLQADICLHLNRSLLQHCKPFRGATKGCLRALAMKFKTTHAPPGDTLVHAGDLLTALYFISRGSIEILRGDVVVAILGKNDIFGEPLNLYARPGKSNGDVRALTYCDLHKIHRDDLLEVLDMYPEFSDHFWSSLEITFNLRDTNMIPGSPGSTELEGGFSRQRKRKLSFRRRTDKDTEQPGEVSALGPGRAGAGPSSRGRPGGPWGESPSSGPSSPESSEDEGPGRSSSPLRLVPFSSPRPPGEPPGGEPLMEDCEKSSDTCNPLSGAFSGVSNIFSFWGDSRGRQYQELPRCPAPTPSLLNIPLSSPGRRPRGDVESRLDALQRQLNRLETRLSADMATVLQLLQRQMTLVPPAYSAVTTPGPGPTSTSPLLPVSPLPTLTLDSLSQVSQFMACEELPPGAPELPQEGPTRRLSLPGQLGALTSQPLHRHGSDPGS
PROTOCOL TEXT: primary screen, population patch clamp on CHO cells stably expressing hERG; higher = less effect of the substance
Out of some 310,000 compounds screened, about 14,000 (4.5%) showed an effect of 50% or more. Effects have a minus sign here. For the sample, strong results were picked, then their nearest neighbours and some compounds at random.
Assign hERG current change (%, negative = inhibition) at 10uM to each entry below.
Answers without a unit are incomplete; give the number and then its unit.

q: Given the compound `COc1ccc2[nH]c3c(=O)n(CCN4CCOCC4)cnc3c2c1` , what is its reported hERG current change (%, negative = inhibition) at 10uM?
a: -2.38%

q: Now the compound `CC(C)(C)c1cc(NC(=O)c2cccc([N+](=O)[O-])c2)no1`
a: 3.8%

q: Now the compound `COc1ccc(CCNC(=O)C2CCN(S(=O)(=O)c3cnc[nH]3)CC2)cc1OC`
a: 13.7%
